Experiment Notes: Disposition in Asbt knockout (Slc10a2-/-) and wild-type mice
Format: in vivo
Test Conditions: mouse, liver, oral, 150 mg/kg, Asbt knockout mice, n=4, 7 h after gavage 150 mg/kg, ±SEM; read-out: Liver concentration
Recorded Endpoint: concentration at 7 h (nM)
# output: bare number, implied unit nM

get_value(item= CC(CCC(=O)N(CCNC(=O)C(F)(F)F)CC(=O)O)[C@H]1CC[C@H]2[C@@H]3[C@H](O)C[C@@H]4C[C@H](O)CC[C@]4(C)[C@H]3C[C@H](O)[C@]12C (stereo partly shown) , readout=concentration at 7 h) returns 900

----------
Experiment Notes: Murine gallbladder imaging (mouse 6), 19F MRI and LC/MS/MS
Format: in vivo, C57BL/6 mice
Test Conditions: male, C57BL/6, liver; mouse 6, after imaging, oral 150 mg/kg; read-out: liver concentration
Recorded Endpoint: concentration at 8.2 h (µM)
API: value field is a number in µM; no unit string.

Record summary for CC(CCC(=O)N(CCNC(=O)C(F)(F)F)CC(=O)O)[C@H]1CC[C@H]2[C@@H]3[C@H](O)C[C@@H]4C[C@H](O)CC[C@]4(C)[C@H]3C[C@H](O)[C@]12C (stereo partly shown) [CA-sar-TFMA] : reported concentration at 8.2 h = 7.66

----------
Experiment Notes: Solubility in buffer
Assay type: physicochemical
Test Conditions: phosphate buffer, aqueous buffer, thermodynamic from solid; pH 6.8, room temperature, overnight, n=3, ±SEM
Recorded Endpoint: solubility (mM)
Use mM as the unit, but write only the number.

Entry CC(CCC(=O)N(CCNC(=O)C(F)(F)F)CC(=O)O)[C@H]1CC[C@H]2[C@@H]3[C@H](O)C[C@@H]4C[C@H](O)CC[C@]4(C)[C@H]3C[C@H](O)[C@]12C (stereo partly shown) , solubility reported as 33.5

----------
Assayed Target: hASBT (sodium-independent passive uptake) (Homo sapiens, UniProt Q12908)
Sequence (Q12908 whole entry): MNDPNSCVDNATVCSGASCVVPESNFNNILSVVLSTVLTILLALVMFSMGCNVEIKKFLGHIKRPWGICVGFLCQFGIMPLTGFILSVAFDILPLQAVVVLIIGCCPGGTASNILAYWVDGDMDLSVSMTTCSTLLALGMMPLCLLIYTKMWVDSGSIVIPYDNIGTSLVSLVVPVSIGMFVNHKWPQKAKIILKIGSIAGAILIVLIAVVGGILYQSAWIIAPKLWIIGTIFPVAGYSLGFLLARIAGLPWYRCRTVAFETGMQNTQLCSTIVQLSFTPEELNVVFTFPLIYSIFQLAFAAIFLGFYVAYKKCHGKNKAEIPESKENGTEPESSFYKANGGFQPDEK
Experiment Notes: Uptake of substrate by ASBT in ASBT-MDCK cells
Format: cell-based
Test Conditions: human; ASBT-MDCK cells, sodium free buffer; read-out: passive permeability (Pp)
Recorded Endpoint: Papp (×10⁻⁶ cm/s)
Use ×10⁻⁶ cm/s as the unit, but write only the number.

Noted for CC(CCC(=O)N(CCNC(=O)C(F)(F)F)CC(=O)O)[C@H]1CC[C@H]2[C@@H]3[C@H](O)C[C@@H]4C[C@H](O)CC[C@]4(C)[C@H]3C[C@H](O)[C@]12C (stereo partly shown) : its Papp reads 0.21

----------
Experiment Notes: Oral disposition characterization: pilot study in mice
Test Conditions: male, C57BL/6, mouse, liver, po, 150 mg/kg, Average liver concentration, mean of mice 1-5, 7 h after oral 150 mg/kg, ±SEM
Recorded Endpoint: concentration at 7 h (µM)
Give your result in µM as a bare value.

Lab note: CC(CCC(=O)N(CCNC(=O)C(F)(F)F)CC(=O)O)[C@H]1CC[C@H]2[C@@H]3[C@H](O)C[C@@H]4C[C@H](O)CC[C@]4(C)[C@H]3C[C@H](O)[C@]12C (stereo partly shown) gave concentration at 7 h of 14.5

----------
Experiment Notes: Disposition in Asbt knockout (Slc10a2-/-) and wild-type mice
Assay type: in vivo
Test Conditions: mouse, plasma, oral, 150 mg/kg, Asbt knockout mice, n=4, 7 h after gavage 150 mg/kg, ±SEM; read-out: Plasma concentration
Protocol: Asbt-deficient (Slc10a2-/-) mice were obtained from a colony maintained at the Wake Forest School of Medicine. […] Gallbladder, liver, and plasma samples were collected at 7 h after dosing, and tissues were processed as described above and analyzed by LC/MS/MS.
Recorded Endpoint: concentration at 7 h (nM)
Give just the numeric value; nM need not be written.

Input CC(CCC(=O)N(CCNC(=O)C(F)(F)F)CC(=O)O)[C@H]1CC[C@H]2[C@@H]3[C@H](O)C[C@@H]4C[C@H](O)CC[C@]4(C)[C@H]3C[C@H](O)[C@]12C (stereo partly shown) [CA-sar-TFMA] . Output concentration at 7 h: 220

----------
Experiment Notes: Oral disposition characterization: pilot study in mice
Test Conditions: male, C57BL/6, mouse, plasma, po, 150 mg/kg, Average plasma concentration, mean of mice 1-5, 7 h after oral 150 mg/kg, ±SEM
Recorded Endpoint: concentration at 7 h (µM)
Express your answer in µM, writing the number without its unit.

Given item CC(CCC(=O)N(CCNC(=O)C(F)(F)F)CC(=O)O)[C@H]1CC[C@H]2[C@@H]3[C@H](O)C[C@@H]4C[C@H](O)CC[C@]4(C)[C@H]3C[C@H](O)[C@]12C (stereo partly shown) , the value recorded as its concentration at 7 h is 1.4

----------
Experiment Notes: Disposition in Asbt knockout (Slc10a2-/-) and wild-type mice
Format: in vivo
Test Conditions: mouse, liver, oral, 150 mg/kg, WT mice, n=4, 7 h after gavage 150 mg/kg, ±SEM; read-out: Liver concentration
Experimental: Asbt-deficient (Slc10a2-/-) mice were obtained from a colony maintained at the Wake Forest School of Medicine. […] Gallbladder, liver, and plasma samples were collected at 7 h after dosing, and tissues were processed as described above and analyzed by LC/MS/MS.
Recorded Endpoint: concentration at 7 h (µM)
Please give a number only; it is taken to be in µM.

Sure, the documented concentration at 7 h for CC(CCC(=O)N(CCNC(=O)C(F)(F)F)CC(=O)O)[C@H]1CC[C@H]2[C@@H]3[C@H](O)C[C@@H]4C[C@H](O)CC[C@]4(C)[C@H]3C[C@H](O)[C@]12C (stereo partly shown) is 4.97

----------
Experiment Notes: Oral disposition characterization: pilot study in mice
Test Conditions: male, C57BL/6, mouse, plasma, po, 150 mg/kg, Plasma Conc., individual mice 1-5, 7 h after oral 150 mg/kg, LC/MS/MS
Recorded Endpoint: concentration at 7 h (nM)
Write the number in nM without appending the unit.

The measured concentration at 7 h associated with CC(CCC(=O)N(CCNC(=O)C(F)(F)F)CC(=O)O)[C@H]1CC[C@H]2[C@@H]3[C@H](O)C[C@@H]4C[C@H](O)CC[C@]4(C)[C@H]3C[C@H](O)[C@]12C (stereo partly shown) reads 1310
